# Test system: SERPINA7 (gene 6906)
# EXPERIMENTAL_DETAILS: CCTE_GLTED_hTBG: CCTE's human Thyroxine-binding Globulin (TBG) Inhibition Assay, Great Lakes Toxicology and Ecology Division (GLTED) Lab (AID 2284343);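 also: active chemicals lower fluorescence versus DMSO baseline by displacing probe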
The source made the active and inactive calls. The calls were made as follows: active = hit-call score of the fitted dose curve at least 0.9, where 1 is the maximum; inconclusive = response in the unintended direction; inactive = score below 0.9.
Reported AC50 values are given for each entry in this list.
PARAMETER_MEASURED: AC50

- O=C(O)C(F)(F)OC(F)(F)C(F)(F)OC(F)(F)C(F)(F)OC(F)(F)F: 18.6 µM (active)
- CCCCCCCCCc1ccc(OCCO)cc1: 50 µM (active)
- CCC(Cc1c(I)cc(I)c(N)c1I)C(=O)O (stereo unspecified): 43.1 µM (active)
- CCc1cc(Cc2cc(CC)c(N)c(CC)c2)cc(CC)c1N: 8.5 µM (active)
- CCN=C1C=CC(=C(c2ccc(N(CC)CC)cc2)c2ccc(N(CC)CC)cc2)c2ccccc21: 4.51 µM (active)
- O=C(c1ccccc1)c1ccc(O)cc1O: 9.12 µM (active)
